targetDesc: NL20 human bronchial epithelial cells expressing human Z-AAT (Homo sapiens (Human), UniProt P01009, E366K)
Sequence (P01009 25-418 E366K limits assumed): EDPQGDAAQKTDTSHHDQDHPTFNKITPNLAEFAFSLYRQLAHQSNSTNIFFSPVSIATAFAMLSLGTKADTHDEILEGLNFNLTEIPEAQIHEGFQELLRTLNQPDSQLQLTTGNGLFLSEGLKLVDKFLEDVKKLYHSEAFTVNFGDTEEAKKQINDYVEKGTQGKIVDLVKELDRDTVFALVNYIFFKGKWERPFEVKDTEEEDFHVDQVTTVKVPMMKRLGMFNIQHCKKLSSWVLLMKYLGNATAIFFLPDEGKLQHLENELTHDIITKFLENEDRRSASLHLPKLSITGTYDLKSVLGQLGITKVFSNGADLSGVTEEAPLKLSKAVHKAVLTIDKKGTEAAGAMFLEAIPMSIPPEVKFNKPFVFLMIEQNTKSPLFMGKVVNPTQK
assayMethodText: AAT Function Assay (MSD Assay NL20-SI Cell Line)
particulars: functionally active AAT (AAT-hNE complex, MSD) in supernatant of NL20 cells expressing human Z-AAT; read-out: NL20 Functional EC50
Measured EC50, listed per entry.
reportedMetric: EC50

1) Cc1cc(-n2c(C(C)C)c(C3CCOC(C(=O)O)C3)c3cc(O)ccc32)ccc1F (stereo not shown) [Compound 65] : > 2000 nM
2) Cc1cc(-n2c(C3CCOCC3)c([C@H]3C[C@@H](c4noc(=O)[nH]4)C3)c3cc(O)ccc32)ccc1F : > 2000 nM
3) O=C(O)[C@H]1CC[C@@H](c2c(C3CCOCC3)n(-c3ccc(F)c(F)c3)c3ccc(O)cc32)CC1 : > 2000 nM
4) Cc1cc(-n2c(C(C)C)c([C@H]3CC[C@@H](C(=O)O)C3)c3cc(O)ccc32)ccc1F (racemic) : > 2000 nM
5) Cc1cc(-n2c(C3CCOCC3)c(CCC(C)(C)C(=O)O)c3cc(O)ccc32)ccc1F : 500 to 2000 nM
6) O=C(O)[C@H]1CC2(C1)C[C@H](c1c(C3CCOCC3)n(-c3ccc(F)cc3)c3ccc(O)cc31)C2 (stereo partly shown) [Compound 50] : 500 to 2000 nM
7) COC[C@]1(C(=O)O)C[C@@H](c2c(C3CCOCC3)n(-c3ccc(F)c(C)c3)c3ccc(O)cc32)C1 [Compound 107] : > 2000 nM

----------
targetDesc: NL20 human bronchial epithelial cells expressing human Z-AAT (Homo sapiens (Human), UniProt P01009, E366K)
assayMethodText: AAT Function Assay (MSD Assay NL20-SI Cell Line)
particulars: functionally active AAT (AAT-hNE complex, MSD) in supernatant of NL20 cells expressing human Z-AAT; read-out: NL20 Functional EC50
reportedMetric: EC50

1) Cc1cc(-n2c(C3CCOCC3)c([C@H]3C[C@](C)(C(=O)O)C3)c3cc(O)ccc32)ccc1F : 500 to 2000 nM
2) CC(C)(C)OC(=O)N1CC(c2c(C#N)c3cc(O)ccc3n2-c2ccc(F)cc2)C1 : > 2000 nM
3) O=C(O)[C@H]1C[C@@H](c2c(C3CCOCC3)n(-c3cc(F)cc(F)c3)c3ccc(O)cc32)C1 : > 2000 nM
4) N#Cc1c(C2CCOCC2)n(-c2ccc(F)cc2)c2ccc(O)cc12 : 500 to 2000 nM
5) Cc1cc(-n2c(C3CCS(=O)(=O)CC3)c([C@H]3C[C@@](C(=O)O)(C(F)(F)F)C3)c3cc(O)ccc32)ccc1F : > 2000 nM
6) Cc1cc(-n2c(C3CCOCC3)c(CC34CC(C(=O)O)(C3)C4)c3cc(O)ccc32)ccc1F : > 2000 nM
7) Cc1cc(-n2c(C3CC3)c([C@H]3C[C@@H]3C(=O)O)c3cc(O)ccc32)ccc1F : > 2000 nM
8) COC(C)(Cc1c(C(C)C)n(-c2ccc(F)c(C)c2)c2ccc(O)cc12)C(=O)O (stereo not drawn) : > 2000 nM
9) Cc1cc(-n2c(C(C)C)c(CC3(C(=O)O)CC3)c3cc(O)ccc32)ccc1F : 500 to 2000 nM
10) O=C(O)[C@H]1C[C@H](c2c(C3CCOCC3)n(-c3cc(F)cc(F)c3)c3ccc(O)cc32)C1 : > 2000 nM
11) CC(C)c1c([C@H]2CC3(C[C@H](C(=O)O)C3)C2)c2cc(O)ccc2n1-c1ccc(F)c(F)c1 (stereo partly drawn) [Compound 58] : 500 to 2000 nM
12) Cc1c(C#N)c2cc(O)ccc2n1-c1ccc(F)cc1 : > 2000 nM

Hello, the source for this data is patent US20230339915A1, in case you need it.
